- procedure-text: Uninfected HeLa-ACE2 24 h live/dead cytotoxicity counter screen
- Type: cell-based, human
- setup-conditions: human, uninfected HeLa-ACE2 cells, unrounded geometric mean; read-out: HeLa-ACE2 uninfected cytotoxicity CC50 GeoMean
parameter-measured: CC50 at 24 h (nM)
Record the value in nM, omitting the unit from your answer.

compound	CC50 at 24 h, nM
CO[C@H]1C[C@H](O[C@H]2CC[C@]3(C=O)[C@H]4CC[C@]5(C)[C@@H](C6=CC(=O)OC6)CC[C@]5(O)[C@@H]4CC[C@]3(O)C2)O[C@H](C)[C@H]1O	287
CC(=O)O[C@H]1C[C@H](O[C@H]2[C@@H](O)C[C@H](O[C@H]3[C@@H](O)C[C@H](O[C@H]4CC[C@@]5(C)[C@H](CC[C@@H]6[C@@H]5C[C@@H](O)[C@]5(C)[C@@H](C7=CC(=O)OC7)CC[C@]65O)C4)O[C@@H]3C)O[C@@H]2C)O[C@H](C)[C@H]1O[C@@H]1O[C@H](CO)[C@@H](O)[C@H](O)[C@H]1O [Lanatoside C]	1350

Report measured CC50 at 24 h; entry is `CNC(=O)n1ccc2cc(Oc3ccnc(NC(=O)c4ccc(C5CCN(CCO)CC5)cc4)c3)c(OCCOC)cc21` 21200

Report measured CC50 at 24 h; entry is `C[C@]12O[C@H](C[C@]1(O)CO)n1c3ccccc3c3c4c(c5c6ccccc6n2c5c31)CNC4=O` 758

Report measured CC50 at 24 h; entry is C[C@@H]1C[C@@H]([C@H](O)CC2CC(=O)NC(=O)C2)C(=O)[C@@H](C)C1 [Cycloheximide] 1470

Attribution: paper PMC8175350
